assay: Ratio of biodistribution in tumor to brain in Fisher 344 rat bearing 9L tumor after 60 mins; format: ADME, organism-based; conditions: in vivo, 1 h
Reported Ratio values for a set of compounds
reported metric: Ratio

| compound | reported metric | number |
| --- | --- | --- |
| NC(Cc1ccc(O)c(CCC[18F])c1)C(=O)O (centres undefined) | Ratio | 4.05 |
| NC(Cc1ccc(O)c(CC[18F])c1)C(=O)O (centres undefined) | Ratio | 2.92 |
| COc1ccc(CC(N)C(=O)O)cc1CC[18F] (centres undefined) | Ratio | 1.9 |
| COc1ccc(CC(N)C(=O)O)cc1CCC[18F] (centres undefined) | Ratio | 2.6 |

* * *

assay: Partition coefficient, log P of the compound; assay type: physicochemical; conditions: octanol/water
reported metric: logP

| molecule | reported metric | number |
| --- | --- | --- |
| NC(Cc1ccc(O)c(CC[18F])c1)C(=O)O (centres undefined) | logP | -1.37 |
| COc1ccc(CC(N)C(=O)O)cc1CCC[18F] (centres undefined) | logP | -0.29 |
| NC(Cc1ccc(O)c(CCC[18F])c1)C(=O)O (centres undefined) | logP | -1.07 |
| COc1ccc(CC(N)C(=O)O)cc1CC[18F] (centres undefined) | logP | -0.75 |

* * *

test system: Blood; experiment: Biodistribution in blood of Fisher 344 rat bearing 9L tumor after 60 mins; type: ADME, organism-based; details: in vivo, 1 h
Reported Drug uptake values for a set of molecules
reported metric: Drug uptake

| molecule | result |
| --- | --- |
| NC(Cc1ccc(O)c(CC[18F])c1)C(=O)O (centres undefined) | 0.06 % ID/g |
| COc1ccc(CC(N)C(=O)O)cc1CCC[18F] (centres undefined) | 0.24 % ID/g |
| NC(Cc1ccc(O)c(CCC[18F])c1)C(=O)O (centres undefined) | 0.64 % ID/g |
| COc1ccc(CC(N)C(=O)O)cc1CC[18F] (centres undefined) | 0.25 % ID/g |

* * *

tested on: Lung; experiment: Biodistribution in lung of Fisher 344 rat bearing 9L tumor after 30 mins; type: ADME, organism-based; conditions: in vivo, 0.5 h
Reported Drug uptake values for a set of compounds

| compound | Drug uptake [% ID/g] |
| --- | --- |
| COc1ccc(CC(N)C(=O)O)cc1CCC[18F] (centres undefined) | 0.34 |
| NC(Cc1ccc(O)c(CC[18F])c1)C(=O)O (centres undefined) | 0.12 |
| NC(Cc1ccc(O)c(CCC[18F])c1)C(=O)O (centres undefined) | 0.78 |
| COc1ccc(CC(N)C(=O)O)cc1CC[18F] (centres undefined) | 0.37 |

* * *

Reported Drug uptake values for a set of compounds
tested on: Femur; assay: Biodistribution in femur of Fisher 344 rat bearing 9L tumor after 60 mins; type: ADME, organism-based; settings: in vivo, 1 h

| compound | Drug uptake (% ID/g) |
| --- | --- |
| COc1ccc(CC(N)C(=O)O)cc1CCC[18F] (centres undefined) | 0.18 |
| NC(Cc1ccc(O)c(CCC[18F])c1)C(=O)O (centres undefined) | 1.45 |
| NC(Cc1ccc(O)c(CC[18F])c1)C(=O)O (centres undefined) | 0.76 |
| COc1ccc(CC(N)C(=O)O)cc1CC[18F] (centres undefined) | 0.22 |
